molecular target: sTREM-1 (UniProt Q9NP99-2 21-150, labelled with Alexa Fluor 488 (Protein Labeling Kit)); assay: MST; sTREM-1 labelled with Alexa Fluor 488; peptide in 16 concentrations by sequential dilution; 30 min in the dark at room temperature; Monolith NT.115, 8% IR laser power; at least three replicates; settings: both partners purified
Sequence (Q9NP99 other isoform, or with tags, fused parts or gaps): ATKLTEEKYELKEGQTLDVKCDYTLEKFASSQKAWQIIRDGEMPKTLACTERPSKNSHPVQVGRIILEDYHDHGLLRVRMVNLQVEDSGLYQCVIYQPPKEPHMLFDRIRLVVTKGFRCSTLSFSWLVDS
readout.name: pKd
Just the number, please; pKd means minus log10 of the concentration in mol/L.

Form: binder = SDNQPGVLIQVYEGEK (Hsp70, human; Found by MALDI-TOF in a trypsin hydrolysate of recombinant human Hsp70, then synthesised; also called N7 peptide; Hsp70 N7 peptide; source: synthetic peptide (Fmoc, purified by HPLC)) [peptide N7 (16aa peptide of Hsp70)] ; pKd = 8.80
